Tgt: human 5-HT2A receptor (Homo sapiens)
Construct: expressed in transfected cells; host or cells: CHO (CHO-5-HT2A cell line)
Assay Overview: Ca2+ mobilization in CHO h5-HT2A cells
Format: cell-based
Conditions: Ca2+ mobilization; no unit in the table, nM; read-out: 5-HT2A EC50 (in parentheses) (converted)
The entries below come with measured EC50 values attached.
Your answer is read as nM, so omit the unit and give the number.

{"Compound": "c1ccc(CNCCc2c[nH]c3ccccc23)cc1 [Compound 1, N-Benzyl-[2-(1H-indol-3-yl)ethyl]amine]", "Tgt": "human 5-HT2A receptor (Homo sapiens)", "Reported Metric": "EC50", "Experimental Value": 162}
{"Compound": "Clc1ccc(CNCCc2c[nH]c3ccccc23)cc1 [Compound 16]", "Tgt": "human 5-HT2A receptor (Homo sapiens)", "Reported Metric": "EC50", "Experimental Value": 58.9}
{"Compound": "Oc1ccccc1CNCCc1c[nH]c2ccccc12 [Compound 2]", "Tgt": "human 5-HT2A receptor (Homo sapiens)", "Reported Metric": "EC50", "Experimental Value": 200}
{"Compound": "COc1ccc2[nH]cc(CCNCc3ccccc3)c2c1 [Compound 37]", "Tgt": "human 5-HT2A receptor (Homo sapiens)", "Reported Metric": "EC50", "Experimental Value": 20.4}

Attention now turns to another entry.
Which value of EC50 has been reported for COc1ccc(CNCCc2c[nH]c3ccccc23)cc1 [Compound 13] in the records?
45.7

###

The entries below come with measured EC50 values attached.
Tgt: human 5-HT2A receptor (Homo sapiens, UniProt P28223)
Construct: expressed in transfected cells; host or cells: CHO (CHO-5-HT2A cell line)
Sequence (P28223 whole entry): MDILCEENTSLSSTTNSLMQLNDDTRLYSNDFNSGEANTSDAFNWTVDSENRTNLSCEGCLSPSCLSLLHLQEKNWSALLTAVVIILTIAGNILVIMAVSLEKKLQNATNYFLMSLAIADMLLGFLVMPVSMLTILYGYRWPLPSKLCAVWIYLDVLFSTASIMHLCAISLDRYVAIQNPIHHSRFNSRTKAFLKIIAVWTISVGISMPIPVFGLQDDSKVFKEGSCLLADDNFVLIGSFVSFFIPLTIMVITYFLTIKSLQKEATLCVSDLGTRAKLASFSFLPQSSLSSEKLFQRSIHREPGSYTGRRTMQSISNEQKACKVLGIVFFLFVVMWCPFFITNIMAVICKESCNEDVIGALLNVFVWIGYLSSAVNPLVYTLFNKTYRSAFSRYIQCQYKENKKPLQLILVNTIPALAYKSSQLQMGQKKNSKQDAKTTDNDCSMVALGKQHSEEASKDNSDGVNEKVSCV
Assay Overview: Ca2+ mobilization in CHO h5-HT2A cells
Type: cell-based
Conditions: Ca2+ mobilization; no unit in the table, nM; read-out: 5-HT2A EC50 (in parentheses) (converted)
Your answer is read as nM, so omit the unit and give the number.

Below, each entry is followed by its recorded EC50 result.
{"Chemical Structure": "Cc1cccc(CNCCc2c[nH]c3ccccc23)c1", "EC50 / nM": 61.7}
{"Chemical Structure": "Clc1cccc(CNCCc2c[nH]c3ccccc23)c1", "EC50 / nM": 120}
{"Chemical Structure": "Cc1ccc(O)c(CNCCc2c[nH]c3ccccc23)c1", "EC50 / nM": 110}
{"Chemical Structure": "COc1cccc(CNCCc2c[nH]c3ccccc23)c1O", "EC50 / nM": 49}

Which value of EC50 has been reported for `COc1ccc2[nH]cc(CCNCc3ccccc3Br)c2c1` in the records?
29.5

Which value of EC50 has been reported for `Oc1cc(Br)ccc1CNCCc1c[nH]c2ccccc12` in the records?
24500

Which value of EC50 has been reported for `COc1ccc(CNCCc2c[nH]c3ccccc23)cc1OC` in the records?
2240

Which value of EC50 has been reported for `Oc1ccc(F)cc1CNCCc1c[nH]c2ccccc12` in the records?
75.9

Which value of EC50 has been reported for `CCOc1ccc(CNCCc2c[nH]c3ccccc23)cc1` in the records?
363

Which value of EC50 has been reported for `COc1ccc(F)cc1CNCCc1c[nH]c2ccccc12` in the records?
60.3

###

Where a name gives a salt, the structure may show the parent alone.
Reported Metric: melting point

Below, each entry is followed by its recorded melting point result.
{"Molecule": "Oc1cccc(Br)c1CNCCc1c[nH]c2ccccc12 (as salt: hydrochloride)", "melting point": "195 to 196 °C"}
{"Molecule": "COc1cccc(CNCCc2c[nH]c3ccccc23)c1O (as salt: succinate)", "melting point": "109 to 111 °C"}
{"Molecule": "COc1cccc(CNCCc2c[nH]c3ccccc23)c1OC (as salt: hydrochloride)", "melting point": "210 to 212 °C"}
{"Molecule": "Oc1c(F)cccc1CNCCc1c[nH]c2ccccc12 (as salt: succinate)", "melting point": "151 to 152 °C"}
{"Molecule": "Oc1ccc(F)cc1CNCCc1c[nH]c2ccccc12 (as salt: hydrochloride)", "melting point": "185 to 186 °C"}

Attention now turns to another entry.
Which value of melting point has been reported for COc1ccc(O)c(CNCCc2c[nH]c3ccc(OC)cc23)c1 (as salt: fumarate) in the records?
196 to 197 °C
